Hey, just so you know, these numbers are from PubChem BioAssay (NCATS).

assay: Cell Viability - LYMP2-021 (AID 974); conditions: LYMP2-021 lymphoblastoid cells viability; series mostly up to 92.2 µM;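 note: compound exposure lasts 24 hours at 37 °C; nearly all actives have a fitted effect of over 55% in size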
Results filed as inconclusive are left out. Active and inactive are the calls of the source. Calls come from the whole dose curve; as a rule, active = well fitted cell-killing curve with a large enough effect; inconclusive = small, poorly fitted or top-dose-only effect; inactive = flat fitted curve, though single readings scatter.
measurementLabel: outcome

Some solved cases for reference:
# smilesRepr, outcome
records = [
    ("c1ccc(OP(Oc2ccccc2)Oc2ccccc2)cc1", "inactive"),
    ("Cc1ccc2ccccc2c1", "inactive"),
    ("CCCCOC(=O)c1ccccc1C(=O)OCCCC", "inactive"),
    ("BrCCBr", "inactive"),
    ("C=CC(=C)C", "inactive"),
]

// next item, outcome requested
Prompt line: Identify outcome associated with the molecule `c1ccc2c(c1)CCCC2`
Response line: inactive
